- Tested on: CAKI-1 renal
- TEST_DETAILS: NCI tumour cell line growth inhibition, 48 h
Entries and their TGI values follow.

COMPOUND	TGI
c1c[nH]c(-c2cccc3nsnc23)c1	> 100 µM
Nc1ncc(Cc2ccc3c(c2)OCO3)c(N)n1	> 100 µM
COc1cc2oc(-c3ccc(O)cc3)cc(=O)c2c(O)c1C1OC(CO)C(O)C(O)C1O (stereo not given)	> 100 µM
CN[C@@H](C)C(=O)N[C@H]1CN(S(=O)(=O)c2cccc(S(=O)(=O)N3CC[C@H]4CC[C@@H](C(=O)NC(c5ccccc5)c5ccccc5)N4C(=O)[C@@H](NC(=O)[C@H](C)NC)C3)c2)CC[C@H]2CC[C@@H](C(=O)NC(c3ccccc3)c3ccccc3)N2C1=O	> 100 µM
O=C1Oc2ccccc2C(=O)/C1=C1/C=C(c2ccccc2)SS1	> 100 µM
O=[N+]([O-])c1ccccc1C1SCc2nc3ccccc3n21 (stereo not given)	> 100 µM
Cn1nccc1Nc1nccc(-c2ccn([C@H](CO)c3ccc(Cl)c(F)c3)c(=O)c2)n1	> 100 µM
[N-]=[N+]=CC(=O)C1CCCN1C(=O)c1ccccc1 (stereo not given)	> 10 µM
COc1cc([C@@H]2c3cc4c(cc3[C@@H](NC(=O)c3ccc(C#N)cc3)C3COC(=O)[C@@H]32)OCO4)cc(OC)c1O (stereo not given in full)	13.2 µM
OCc1cc2c(cn1)[nH]c1ccc(NCc3ccccc3)cc12	> 100 µM
NS(=O)(=O)c1nnc(NC(=O)N(c2ccccc2)c2ccccc2)s1	> 100 µM
CCc1cccc(C)c1NC(=O)CCc1nc(=S)[nH][nH]1	> 100 µM
O=C(CCc1cc(O)cc(O)c1)NCCc1cc(OCc2ccccc2)cc(OCc2ccccc2)c1	36.8 µM
Cc1ccc(O)cc1Nc1ccnc2ccc(S(C)(=O)=O)cc12	5.12 µM
CC(C)C(Br)CCC1=CCC(Br)(Br)C1 (stereo not given)	33.7 µM
O=c1oc2ccccc2c(O)c1Cc1ccc(Cc2c(O)c3ccccc3oc2=O)cc1	> 100 µM
O=CC(I)=C(c1ccccc1)c1ccccc1	30.4 µM
CC1=NN(C(=O)Cc2ccccc2)C(=O)/C1=C\c1ccc(O)cc1	> 100 µM
Cc1ccc2c(-c3ccnc(Nc4ccc5c(c4)OCCO5)n3)c(-c3ccc(C(F)(F)F)cc3)nn2n1	> 25 µM
CN(C)C(=O)C(F)(F)C(c1ccc(F)cc1)C1C(=O)N(C)C(=O)N(C)C1=O (stereo not given)	> 100 µM

* * *

- System: M14 melanoma
- TEST_DETAILS: NCI tumour cell line growth inhibition, 48 h
Entries and their TGI values follow.
REPORTED_ENDPOINT: TGI (µM)

> print(dat)
                                   compound  value.qualifier  observed.measurement
1  COc1cc([C@@H]2c3cc4c(cc3[C@@H](NC(=O)c3ccc(C#N)cc3)C3COC(=O)[C@@H]32)OCO4)cc(OC)c1O (stereo not given in full)                =                  12.4
2  OC1(c2ccc(Cl)c(C(F)(F)F)c2)CCN(CCCC(c2ccc(F)cc2)c2ccc(F)cc2)CC1                =                  1.52
3  CC1=N/C(=C\c2ccc(/C=C3/N=C(C)OC3=O)cc2)C(=O)O1                >                   100
4    Cc1nc2ccc(Cl)cc2c(-n2ccnc2)c1CCn1ccnc1                >                   100
5  COc1nc2c(c(O)c(C)c(=O)n2OC2OCC(OC(C)=O)C(OC(C)=O)C2OC(C)=O)c(=O)n1C (stereo not given)                >                   100

* * *

- Tested on: NCI/ADR-RES ovarian
- TEST_DETAILS: NCI tumour cell line growth inhibition, 48 h

COMPOUND	TGI
COc1ccc2c(c1)C(=O)c1c-2c(Nc2ccccc2OC)nc2ccccc12	> 100 µM
O=c1ccc2ccc(S)cc2o1	> 100 µM
COCC([C@@H](O)C(O)C(=O)NCC[C@@H](C)c1nc(/C=C/CC2OC3(C[C@H](O)C2C)OC(C(C[C@H](O)C(C)[C@H](O)C(C)/C=C(C)/C(C)=C/C=C/C(C)=C/C#N)OC)[C@@H](OP(=O)(O)O)C3(C)C)co1)N(C)C (stereo partly drawn)	0.00258 µM
C[C@@H]1CC[C@@]2(C)C(C(=O)O)=CCCC2[C@@]1(C)CC(=O)c1ccoc1 (stereo partly drawn)	> 25 µM
CN(C)c1ccc(/C=C(\NC(=O)c2ccccc2)C(=O)NC(CC(=O)O)C(=O)O)cc1 (stereo not drawn)	> 100 µM
OC1(c2ccc(Cl)c(C(F)(F)F)c2)CCN(CCCC(c2ccc(F)cc2)c2ccc(F)cc2)CC1	1.77 µM
COC(=O)/C=C(\C)CC/C=C(\C)CCC1OC1(C)C (stereo not drawn)	28 µM
CN[C@@H](C)C(=O)N[C@H]1CN(S(=O)(=O)c2cccc(S(=O)(=O)N3CC[C@H]4CC[C@@H](C(=O)NC(c5ccccc5)c5ccccc5)N4C(=O)[C@@H](NC(=O)[C@H](C)NC)C3)c2)CC[C@H]2CC[C@@H](C(=O)NC(c3ccccc3)c3ccccc3)N2C1=O	> 100 µM

* * *

- System: M14 melanoma
- TEST_DETAILS: NCI tumour cell line growth inhibition, 48 h
Entries and their TGI values follow.
REPORTED_ENDPOINT: TGI (µM)

> print(dat)
                                   molecule  reported.endpoint  value.qualifier  observed.measurement
1  CCCCCCCCCCCCCCCCCCOc1ccccc1CC(=O)NCC[N+]1(C)CCOCC1                TGI                >                   100
2  CN(C)CCCC1(c2ccc(F)cc2)OCc2cc(-c3cccc4[nH]ccc34)ccc21 (stereo not given)                TGI                =                  3.33
3  COC(=O)CCC(NC(=S)N/N=C/c1cccs1)C(=O)OC (stereo not given)                TGI                >                   100
4  O=C1/C(=C/c2ccc(Cl)c(Cl)c2)CN(C(=O)CCN2CCC(=NO)CC2)C/C1=C\c1ccc(Cl)c(Cl)c1                TGI                =                  2.23
5  O=C(NC12CC3CCC1CC(C3)C2)[C@@H]1CCCN1C(=O)OCc1ccccc1 (stereo not given in full)                TGI                >                   100

* * *

- System: A498 renal
- TEST_DETAILS: NCI tumour cell line growth inhibition, 48 h
REPORTED_ENDPOINT: GI50

> print(dat)
                              smiles.string  observed.measurement
1  O=C(NCc1cccc(CNC(=O)Nc2nc3ccccc3[nH]2)c1)Nc1nc2ccccc2[nH]1               2070 nM
2   COc1ccc2sc3c(NCCCN)nc4ccccc4c3c(=O)c2c1               1520 nM
3  O=C(Nc1cccc(-n2cc(-c3ccncc3)c(-c3cc(O)cc(Cl)c3)n2)c1)c1ccc(N2CCOCC2)c(C(F)(F)F)c1              19400 nM
4  FC(F)(F)Oc1cccc(-c2cc(NCCCCCCNc3cc(-c4cccc(OC(F)(F)F)c4)nc4ccc(N5CCCC5)cc34)c3cc(N4CCCC4)ccc3n2)c1               2050 nM
5  CC(C)(CO)CNC(=O)c1ccc2[nH]c(O)c(N=Nc3ccc(S(N)(=O)=O)cc3)c2c1            > 25000 nM
6        O=C1C=C[C@H](O)[C@@]2(CO)O[C@@H]12              18400 nM
7  O=C(OCc1ccc2c(Br)cc(Br)c(O)c2n1)c1cc2ccccc2[nH]1               1560 nM
8         CCNc1nc(O)c(/C=C2\C=Nc3ncccc32)s1               2120 nM
9  Cc1c2ccnc(C(N)=O)c2c(C)c2c1[nH]c1ccccc12               3090 nM

* * *

- Test system: MCF7 breast
- TEST_DETAILS: NCI tumour cell line growth inhibition, 48 h
Entries and their TGI values follow.
REPORTED_ENDPOINT: TGI

> print(dat)
                                   molecule  reported.endpoint  observed.measurement
1  O=C(Nc1cccc(-n2cc(-c3ccncc3)c(-c3cc(O)cc(Cl)c3)n2)c1)c1ccc(N2CCOCC2)c(C(F)(F)F)c1                TGI              > 100 µM
2  CC(Br)C(=O)NC(CO)C(=O)O (centres undefined)                TGI              > 100 µM
3  CCn1cc(C(=O)O)c(=O)c2cc(F)c(N3CCN(S(=O)(=O)c4cccc5ccccc45)CC3)cc21                TGI               9.04 µM
4  CC(=O)O[C@@H](c1nccn1Cc1ccccc1)[C@H]1OC(C)(C)O[C@@H]1[C@H]1COC(C)(C)O1                TGI              > 100 µM
5  COC(=O)CNC(=O)C(CSC(=O)OCC1c2ccccc2-c2ccccc21)NC(=O)CCC(NC(=O)OCC1c2ccccc2-c2ccccc21)C(=O)OC (centres undefined)                TGI               42.8 µM
6  Cn1nc(-c2ccc(S(=O)(=O)/N=C(\NN)Nc3ccc(Cl)cc3)s2)cc1C(F)(F)F                TGI               44.5 µM
7  O=C1c2cccc(Oc3ccccc3)c2C(=O)c2cccc(Oc3ccccc3)c21                TGI              > 100 µM
8                CN(C)CCN(c1ccccn1)c1ccccn1                TGI              > 100 µM
9  NS(=O)(=O)c1nnc(NC(=O)N(c2ccccc2)c2ccccc2)s1                TGI              > 100 µM
